Data origin: ChEMBL document CHEMBL1133663

- Test system: Rattus norvegicus
- ASSAY_TEXT: In vivo inhibition of adjuvant arthritis in rats
- Type: functional
ED50 for assorted compounds
Give the number; mg/kg is assumed, so skip it.

- STRUCTURE_AS_SMILES: "Cc1oc(=O)n(-c2ccc(F)cc2)c1-c1ccc(S(N)(=O)=O)cc1"
  OUTPUT_UNIT: "mg/kg"
  RESULT: 3
- STRUCTURE_AS_SMILES: "NS(=O)(=O)c1ccc(-c2coc(=O)n2-c2ccccc2F)cc1"
  OUTPUT_UNIT: "mg/kg"
  RESULT: 0.27
- STRUCTURE_AS_SMILES: "CS(=O)(=O)c1ccc(-c2coc(=O)n2-c2ccc(F)cc2F)cc1"
  OUTPUT_UNIT: "mg/kg"
  RESULT: 2.5
- STRUCTURE_AS_SMILES: "COc1ccc2c(c1)c(CC(=O)O)c(C)n2C(=O)c1ccc(Cl)cc1"
  OUTPUT_UNIT: "mg/kg"
  RESULT: 0.22
- STRUCTURE_AS_SMILES: "COc1ccc2cc([C@H](C)C(=O)O)ccc2c1"
  OUTPUT_UNIT: "mg/kg"
  RESULT: 6.1

Query string: Find ED50 (Rattus norvegicus) for the entry Cc1cccc(-n2c(-c3ccc(S(N)(=O)=O)cc3)coc2=O)c1
Result string: 0.6

Query string: Find ED50 (Rattus norvegicus) for the entry CS(=O)(=O)c1ccc(-c2coc(=O)n2-c2ccc(F)cc2)cc1
Result string: 2.8
